# System: KM12
# run description: NCI tumour cell line growth inhibition, 48 h
The source made the active and inactive calls. Rule as the data show it: active = GI50 up to about 1.1 µM and inactive = higher.
Assign a class; possible classes are True = active, False = inactive

Below, 5 compounds whose answers are already recorded.
compound | qualitative label
CC1CN=C(N(Cc2ccc(F)cc2)C(=O)Nc2ccc(Cl)cc2)S1 (stereo not given) | False
S=c1sscc1N1CCSc2ssc(=S)c21 | False
COc1cc2ccc3c4cc(OC)c(OCc5ccccc5)cc4cnc3c2cc1OC | False
CC(=O)Nc1ccc(S(=O)(=O)Nc2nc(-c3ccc(Cl)cc3)cc(N3N=C(c4ccc(Br)cc4)CC3c3ccccc3)n2)cc1 (stereo not given) | False
N#CC1(C2SCC[S+]2[O-])C2=C(C(=O)c3ccccc3C2=O)N2CCCC21 (stereo not given) | False

What did this assay record as the result for COc1cc(Oc2c(C)c(Cl)c(OC)c(Cl)c2OC)c2c(c1Cl)COC2=O ?
False

Quick one: O=c1[nH]c(=O)n(C2OC(CO)C(O)C2O)cc1OCCCc1ccccc1 (stereo not given)
False

Quick one: Cc1c[n+]([O-])c2ccccc2[n+]1[O-]
False

Quick one: O=[N+]([O-])C(=C(Nc1ccccc1)Nc1ccccc1)/C(Cl)=C(\Cl)[N+](=O)[O-]
False

Quick one: CCC/N=C(/NC(=O)c1ccc(Cl)cc1)SC
False

Quick one: CC(C)(Br)C(=O)C(Br)Br
False

Quick one: CC(=O)N1C(NN(C)C)CCN1c1ccccc1 (stereo not given)
False

The measured values listed here are drawn from ChEMBL document CHEMBL1201862.
